B1: TPR t1 (parent)
chain: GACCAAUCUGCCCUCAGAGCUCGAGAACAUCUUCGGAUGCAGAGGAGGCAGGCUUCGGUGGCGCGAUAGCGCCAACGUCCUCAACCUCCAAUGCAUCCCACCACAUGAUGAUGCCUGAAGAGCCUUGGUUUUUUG

- Variants of: B1
- run description: polymerase ribozyme fitness, log enrichment relative to wild type (log ratio); higher = more active; in vitro selection for triplet polymerase activity
Give Satisfied when the value for polymerase ribozyme fitness (log ratio) is at least -1. Give Not satisfied when it is less.

mutant id	label value
A43G C82G C114U A119G U131A	Not satisfied

**Q:** polymerase ribozyme fitness (log ratio) >= -1 for G52C C86A C114U G120U ?
**A:** Not satisfied

**Q:** polymerase ribozyme fitness (log ratio) >= -1 for G45U G69U ?
**A:** Satisfied

**Q:** polymerase ribozyme fitness (log ratio) >= -1 for G19A C49U G113U ?
**A:** Not satisfied

**Q:** polymerase ribozyme fitness (log ratio) >= -1 for U81A U87A ?
**A:** Not satisfied

**Q:** polymerase ribozyme fitness (log ratio) >= -1 for A41G U81A ?
**A:** Not satisfied

**Q:** polymerase ribozyme fitness (log ratio) >= -1 for G63A C80A ?
**A:** Not satisfied

**Q:** polymerase ribozyme fitness (log ratio) >= -1 for C82A C94A C104A ?
**A:** Not satisfied

**Q:** polymerase ribozyme fitness (log ratio) >= -1 for G19A G47A C88U ?
**A:** Not satisfied

**Q:** polymerase ribozyme fitness (log ratio) >= -1 for G60A A90C ?
**A:** Satisfied

**Q:** polymerase ribozyme fitness (log ratio) >= -1 for A43U G60A ?
**A:** Not satisfied

**Q:** polymerase ribozyme fitness (log ratio) >= -1 for C49U G120A ?
**A:** Satisfied

**Q:** polymerase ribozyme fitness (log ratio) >= -1 for C11U U55C A121G ?
**A:** Satisfied

**Q:** polymerase ribozyme fitness (log ratio) >= -1 for C3U C15A G52C ?
**A:** Not satisfied

**Q:** polymerase ribozyme fitness (log ratio) >= -1 for C12U C56A G69A U129A ?
**A:** Not satisfied

**Q:** polymerase ribozyme fitness (log ratio) >= -1 for C12U C13A C114G ?
**A:** Not satisfied
